This collection of values is drawn from patent US9790209B2.

Test system: PBMCs
PROTOCOL TEXT: LPS-induced TNFα/IL-8 release in PBMC cells
Assay type: cell-based
COND: Homo sapiens, LPS-stimulated PBMCs, IL-8, read-out: IC50 Values for Inhibition of Cytokine Release PBMCs IL-8
Provide the reported pIC50 of each item.
API: returns pIC50 as number; meaning -log10 of concentration in mol/L.

Q. Entry under review: `C#CC(C)(C)c1cc(NC(=O)Nc2ccc(Oc3ccnc(Nc4cccc(OCCN(C)C)n4)n3)c3ccccc23)n(-c2ccc(C)cc2)n1` . Reported pIC50?
A. 8.77

Q. Entry under review: `C#CC(C)(C)c1cc(NC(=O)Nc2ccc(Oc3ccnc(Nc4ccc5c(c4)NC(=O)C5)n3)c3ccccc23)n(-c2ccc(C)cc2)n1` . Reported pIC50?
A. 8.68

Q. Entry under review: `C#CC(C)(C)c1cc(NC(=O)Nc2ccc(Oc3ccnc(Nc4cc(OCCN(C)C)ccn4)n3)c3ccccc23)n(-c2ccc(C)cc2)n1` . Reported pIC50?
A. 7.97

Q. Entry under review: `C#CC(C)(C)c1cc(NC(=O)Nc2ccc(Oc3ccnc(Nc4cc(OC(F)(F)F)cc(C(=O)NCCN5CCOCC5)c4)n3)c3ccccc23)n(-c2ccc(C)cc2)n1` . Reported pIC50?
A. 8.85

Q. Entry under review: `C#CC(C)(C)c1cc(NC(=O)Nc2ccc(Oc3ccnc(Nc4cc(OC)cc(OCCOCCOCCOC)c4)n3)c3ccccc23)n(-c2ccc(C)cc2)n1` . Reported pIC50?
A. 8.77

Q. Entry under review: `C#CC(C)(C)c1cc(NC(=O)Nc2ccc(Oc3ccnc(Nc4cc(C)c5[nH]ncc5c4)n3)c(Cl)c2Cl)n(-c2ccc(C)cc2)n1` . Reported pIC50?
A. 8.12

---

MEASURED PROPERTY: pIC50
API: returns pIC50 as number; meaning -log10 of concentration in mol/L.

Q. What reported pIC50 corresponds to `C#CC(C)(C)c1cc(NC(=O)Nc2ccc(Oc3ccnc(Nc4ccccc4)c3)c3ccccc23)n(-c2ccc(C)cc2)n1` on c-Src (Homo sapiens (Human), UniProt P12931)?
A. 7.09

Q. What reported pIC50 corresponds to `C#Cc1cc(Nc2nccc(Oc3ccc(NC(=O)Nc4cc(C(C)(C)C#C)nn4-c4ccc(C)cc4)c4ccccc34)n2)cc(C(=O)NCCN2CCOCC2)c1` on c-Src (Homo sapiens (Human), UniProt P12931)?
A. 7.80

Q. What reported pIC50 corresponds to `C#CC(C)(C)c1cc(NC(=O)Nc2ccc(Oc3ccnc(Nc4ccccc4)n3)c3ccccc23)n(-c2ccc(C)cc2)n1` on c-Src (Homo sapiens (Human), UniProt P12931)?
A. 7.22

Q. What reported pIC50 corresponds to `C#CC(C)(C)c1cc(NC(=O)Nc2ccc(Oc3ccnc(Nc4ccc5c(c4)NC(=O)C5)n3)c3ccccc23)n(-c2ccc(C)cc2)n1` on c-Src (Homo sapiens (Human), UniProt P12931)?
A. 6.69

Q. What reported pIC50 corresponds to `C#CC(C)(C)c1cc(NC(=O)Nc2ccc(Oc3ccnc(Nc4cccc(OCCN5CCOCC5)n4)n3)c3ccccc23)n(-c2ccc(C)cc2)n1` on c-Src (Homo sapiens (Human), UniProt P12931)?
A. 7.68

---

Provide the reported pIC50 of each item.
Test system: HT29 cells
PROTOCOL TEXT: IL-1-induced IL-8 release in HT29 cells
Format: cell-based
COND: Homo sapiens, HT-29, IL-1β-stimulated HT29 cells, read-out: IC50 Values for Inhibition of Cytokine Release HT29 cells IL-8
API: returns pIC50 as number; meaning -log10 of concentration in mol/L.

Q. Entry under review: `C#Cc1cc(Nc2nccc(Oc3ccc(NC(=O)Nc4cc(C(C)(C)C#C)nn4-c4ccc(C)cc4)c4ccccc34)n2)cc(C(=O)NCCN2CCOCC2)c1` . Reported pIC50?
A. 8.60

Q. Entry under review: `C#CC(C)(C)c1cc(NC(=O)Nc2ccc(Oc3ccnc(Nc4cc(C(=O)NCCN5CCOCC5)cc(C(F)(F)F)c4)n3)c3ccccc23)n(-c2ccc(C)cc2)n1` . Reported pIC50?
A. 8.43

Q. Entry under review: `C#CC(C)(C)c1cc(NC(=O)Nc2ccc(Oc3ccnc(Nc4ccc5c(c4)NC(=O)C5)n3)c3ccccc23)n(-c2ccc(C)cc2)n1` . Reported pIC50?
A. 8.22

Q. Entry under review: `C#CC(C)(C)c1cc(NC(=O)Nc2ccc(Oc3ccnc(Nc4cc(OC)cc(OCCOCCOCCOC)c4)n3)c3ccccc23)n(-c2ccc(C)cc2)n1` . Reported pIC50?
A. 8.77

Q. Entry under review: `C#CC(C)(C)c1cc(NC(=O)Nc2ccc(Oc3ccnc(Nc4cc(OC(F)(F)F)cc(C(=O)NCCN5CCOCC5)c4)n3)c3ccccc23)n(-c2ccc(C)cc2)n1` . Reported pIC50?
A. 8.44

Q. Entry under review: `C#CC(C)(C)c1cc(NC(=O)Nc2ccc(Oc3ccnc(Nc4cc(C)c5[nH]ncc5c4)n3)c3ccccc23)n(-c2ccc(C)cc2)n1` . Reported pIC50?
A. 8.49

---

pIC50, p38 MAPKα (Homo sapiens (Human)), per-entry values.
API: returns pIC50 as number; meaning -log10 of concentration in mol/L.

Q. Entry under review: C#CC(C)(C)c1cc(NC(=O)Nc2ccc(Oc3ccnc(Nc4cc(OC)cc(OCCOCCOCCOC)c4)n3)c3ccccc23)n(-c2ccc(C)cc2)n1 [Example 13] . Reported pIC50?
A. 6.82

Q. Entry under review: C#Cc1cc(Nc2nccc(Oc3ccc(NC(=O)Nc4cc(C(C)(C)C#C)nn4-c4ccc(C)cc4)c4ccccc34)n2)cc(C(=O)NCCN2CCOCC2)c1 [Example 15] . Reported pIC50?
A. 7.17

Q. Entry under review: C#CC(C)(C)c1cc(NC(=O)Nc2ccc(Oc3ccnc(Nc4ccccc4)c3)c3ccccc23)n(-c2ccc(C)cc2)n1 [Example 7] . Reported pIC50?
A. 6.57

Q. Entry under review: C#CC(C)(C)c1cc(NC(=O)Nc2ccc(Oc3ccnc(Nc4cccc(OCCN5CCOCC5)n4)n3)c3ccccc23)n(-c2ccc(C)cc2)n1 [Example 16] . Reported pIC50?
A. 6.83

Q. Entry under review: C#CC(C)(C)c1cc(NC(=O)Nc2ccc(Oc3ccnc(Nc4cc(OC(F)(F)F)cc(C(=O)NCCN5CCOCC5)c4)n3)c3ccccc23)n(-c2ccc(C)cc2)n1 [Example 14] . Reported pIC50?
A. 6.56

---

Tested on: PBMCs
PROTOCOL TEXT: LPS-induced TNFα/IL-8 release in PBMC cells
Format: cell-based
COND: Homo sapiens, LPS-stimulated PBMCs, IL-8, read-out: IC50 Values for Inhibition of Cytokine Release PBMCs IL-8
Provide the reported IC50 of each item.
Please state the figure in nM; there is no need to write the unit.

Q. Entry under review: C#CC(C)(C)c1cc(NC(=O)Nc2ccc(Oc3ccnc(Nc4cc(OC)cc(C(=O)NCCN5CCOCC5)c4)n3)c3ccccc23)n(-c2ccc(C)cc2)n1 [Example 4] . Reported IC50?
A. 0.5

Q. Entry under review: C#CC(C)(C)c1cc(NC(=O)Nc2ccc(Oc3ccnc(Nc4cccc(OCCOCCOCCOC)n4)n3)c3ccccc23)n(-c2ccc(C)cc2)n1 [Example 17] . Reported IC50?
A. 30.4

Q. Entry under review: C#CC(C)(C)c1cc(NC(=O)Nc2ccc(Oc3ccnc(Nc4cccc(OCCN5CCOCC5)c4)n3)c3ccccc23)n(-c2ccc(C)cc2)n1 [Example 5] . Reported IC50?
A. 1

Q. Entry under review: C#CC(C)(C)c1cc(NC(=O)Nc2ccc(Oc3ccnc(Nc4cc(C)c5[nH]ncc5c4)n3)c3ccccc23)n(-c2ccc(C)cc2)n1 [Example 2] . Reported IC50?
A. 2

Q. Entry under review: C#CC(C)(C)c1cc(NC(=O)Nc2ccc(Oc3ccnc(Nc4cccc(OCCN(C)C)c4)n3)c3ccccc23)n(-c2ccc(C)cc2)n1 [Example 6] . Reported IC50?
A. 0.6

Q. Entry under review: C#CC(C)(C)c1cc(NC(=O)Nc2ccc(Oc3ccnc(Nc4ccccc4)n3)c3ccccc23)n(-c2ccc(C)cc2)n1 [Example 1] . Reported IC50?
A. 1.6

---

Provide the reported IC50 of each item.
Please state the figure in nM; there is no need to write the unit.

Q. What reported IC50 corresponds to `C#CC(C)(C)c1cc(NC(=O)Nc2ccc(Oc3ccnc(Nc4cc(C)c5[nH]ncc5c4)n3)c3ccccc23)n(-c2ccc(C)cc2)n1` on UniProt:P43405?
A. 50

Q. What reported IC50 corresponds to `C#CC(C)(C)c1cc(NC(=O)Nc2ccc(Oc3ccnc(Nc4ccccc4)c3)c3ccccc23)n(-c2ccc(C)cc2)n1` on UniProt:P43405?
A. 185

Q. What reported IC50 corresponds to `C#Cc1cc(Nc2nccc(Oc3ccc(NC(=O)Nc4cc(C(C)(C)C#C)nn4-c4ccc(C)cc4)c4ccccc34)n2)cc(C(=O)NCCN2CCOCC2)c1` on UniProt:P43405?
A. 40

Q. What reported IC50 corresponds to `C#CC(C)(C)c1cc(NC(=O)Nc2ccc(Oc3ccnc(Nc4cc(OC(F)(F)F)cc(C(=O)NCCN5CCOCC5)c4)n3)c3ccccc23)n(-c2ccc(C)cc2)n1` on UniProt:P43405?
A. 203
